Some compounds, each annotated with its measured Activity.
# EXPERIMENTAL_TARGET: Enteropeptidase (Homo sapiens) (UniProt P98073)
# Sequence (P98073 2-784 limits assumed): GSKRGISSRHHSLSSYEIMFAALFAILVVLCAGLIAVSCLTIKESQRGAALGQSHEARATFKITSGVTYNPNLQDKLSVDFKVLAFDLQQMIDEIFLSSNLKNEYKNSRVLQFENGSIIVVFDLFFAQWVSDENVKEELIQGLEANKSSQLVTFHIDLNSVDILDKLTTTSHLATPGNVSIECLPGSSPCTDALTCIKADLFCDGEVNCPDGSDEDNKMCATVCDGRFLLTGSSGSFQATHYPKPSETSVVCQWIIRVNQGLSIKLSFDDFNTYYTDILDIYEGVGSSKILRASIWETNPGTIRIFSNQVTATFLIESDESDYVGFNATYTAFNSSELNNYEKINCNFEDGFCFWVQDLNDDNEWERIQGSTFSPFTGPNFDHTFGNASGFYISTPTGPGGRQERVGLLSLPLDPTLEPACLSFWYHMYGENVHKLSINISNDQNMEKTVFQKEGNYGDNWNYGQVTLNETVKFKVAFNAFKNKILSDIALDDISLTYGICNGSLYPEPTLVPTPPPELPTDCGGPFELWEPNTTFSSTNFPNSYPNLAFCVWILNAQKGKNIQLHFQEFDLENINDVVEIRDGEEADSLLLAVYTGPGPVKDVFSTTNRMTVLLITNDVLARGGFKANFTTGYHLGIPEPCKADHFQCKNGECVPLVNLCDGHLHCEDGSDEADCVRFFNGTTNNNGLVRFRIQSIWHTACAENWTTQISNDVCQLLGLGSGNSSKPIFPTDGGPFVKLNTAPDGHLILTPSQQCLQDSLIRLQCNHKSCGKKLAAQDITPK
# Sequence (P98073 785-1019 limits assumed): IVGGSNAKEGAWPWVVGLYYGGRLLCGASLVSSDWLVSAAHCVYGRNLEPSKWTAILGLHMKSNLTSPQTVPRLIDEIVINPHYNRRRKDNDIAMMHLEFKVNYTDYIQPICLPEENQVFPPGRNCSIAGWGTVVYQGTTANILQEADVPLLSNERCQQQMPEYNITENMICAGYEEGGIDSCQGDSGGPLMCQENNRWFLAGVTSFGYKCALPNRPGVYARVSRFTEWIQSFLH
# ASSAY_OVERVIEW: Inhibition of full length recombinant human EP expressed in CHO cells assessed as protease activity using […] as substrate at 10 uM by fluorescence assay relative to control
# Design: scale not given: the % may be the effect or the level left
Note to self: number, then unit, no commentary.

- CNC(=N)Nc1ccc(C(=O)Oc2ccc(CC(=O)O)n3ncnc23)cc1: 97.9%
- O=C(O)Cc1ccc(OC(=O)c2ccc(NC3=NCCCN3)cc2)c2ncnn12: -10.4%

Q. Fill in the blank: the reported Activity of N#CNC(=N)c1ccc(C(=O)Oc2ccc(CC(=O)O)n3ncnc23)cc1 is ____.
A. 13.6%

Q. Recorded Activity for N=C(N)Nc1ccc(C(=O)Oc2ccc(CC(=O)N[C@@H](CC(=O)O)C(=O)O)n3ccnc23)cc1 , please?
A. 100%

###

Each entry below carries its reported Activity.
# EXPERIMENTAL_TARGET: Enteropeptidase (Homo sapiens) (UniProt P98073)
# ASSAY_OVERVIEW: Inhibition of full length recombinant human EP expressed in CHO cells assessed as protease activity using […] as substrate at 0.1 uM by fluorescence assay relative to control
# Set-up: scale not given: the % may be the effect or the level left
Reply numerically in %, unit not repeated.

Worked cases, answers included:
- N#CNC(=N)c1ccc(C(=O)Oc2ccc(CC(=O)O)n3ncnc23)cc1: -1.6
- N=C(N)Nc1ccc(C(=O)Oc2ccc(CC(=O)O)n3ncnc23)s1: 82
- N=C(N)Nc1ccc(C(=O)Oc2ccc(CC(=O)O)n3ncnc23)cc1F: 96.8
- N=C(N)Nc1ccc(C(=O)Oc2ccc(CC(=O)O)n3ncnc23)c(Cl)c1: 81.2
- N=C(N)Nc1ccc(C(=O)Oc2ccc(CC(=O)N(CC(=O)O)CC(=O)O)n3ncnc23)cc1: 20.9
- C/C(=N\O)Nc1ccc(C(=O)Oc2ccc(CC(=O)O)n3ncnc23)cc1: -10.7
- O=C(O)Cc1ccc(OC(=O)c2ccc(NC3=NCCCN3)cc2)c2ncnn12: 1.03

Now consider a different compound.
Q. What value of Activity has been recorded for this entry: CS(=O)(=O)NC(=O)Cc1ccc(OC(=O)c2ccc(NC(=N)N)cc2)c2ncnn12
A. 101

###

# Organism: Bos taurus
# ASSAY_OVERVIEW: Inhibition of bovine trypsin assessed as protease activity using D-CHA-AR-AMC as substrate at 0.1 uM by fluorescence assay relative to control
# Design: scale not given: the % may be the effect or the level left
ENDPOINT_NAME: Activity (%)
Answer in %, number only, no unit symbol.

Completed entries (count: 5):
• O=C(O)Cc1ccc(OC(=O)c2ccc(C3=NCCN3)cc2)c2ncnn12 = -0.36
• N=C(N)NCc1ccc(C(=O)Oc2ccc(CC(=O)O)n3ncnc23)cc1 = 3.87
• N=C(N)Nc1ccc(C(=O)Oc2cc(CC(=O)O)cn3ncnc23)cc1 = 81.7
• N=C(N)Nc1ccc(C(=O)Oc2ccc(CC(=O)NCC(=O)O)n3ncnc23)cc1 = 99.7
• O=C(O)Cc1ccc(OC(=O)c2ccc(NC3=NCCCN3)cc2)c2ncnn12 = 2.91

Q. Look at this compound and give its reported Activity. N=C(N)Nc1ccc(C(=O)Oc2ccc(CC(=O)O)n3ncnc23)c(F)c1
A. 97.2

Q. What Activity value was documented for this compound, N=C(N)Nc1cccc(C(=O)Oc2ccc(CC(=O)O)n3ncnc23)c1 ?
A. -0.24
